- test: NCI Yeast Anticancer Drug Screen. Data for the cln2 rad14 strain (AID 165);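 also: 0% = growth equal to vehicle treated cultures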
- experimental.parameters: S. cerevisiae cln2 rad14 strain, at 50.0 µM (retest, dose inferred, filed as 5.0), hits give high values
The panel holds about 79,000 compounds, 15% with a hit somewhere; the sample as a whole holds those more often.
# growth inhibition per entry
Number only, in %; omit the unit.

Known results for molecules:
# molecule, scale.unit, growth inhibition
rows = [
    ("COC(O)C(=O)c1ccc2c(c1)CC1(C2)Cc2cc3c(cc2C1=O)CCC3 (stereo unspecified)", "%", 99),
    ("COC12C=CC(CC1)c1c2c(O)c2ccncc2c1O (stereo unspecified)", "%", 68),
    ("CCCC/C=C1\\CCC(CN2CCOCC2)C1=O (stereo unspecified)", "%", 98),
]

Reported growth inhibition for COc1ccc2nc3cccc([N+](=O)[O-])c3c(NCCO)c2c1 was 97

Reported growth inhibition for COc1ccc(NC2Oc3cc4c(cc3C(c3cccc(OC)c3OC)C2C)OCO4)cc1 (stereo unspecified) was 12

Reported growth inhibition for O=C(CCCCOCCCCC(=O)OCC1CCCO1)OCC1CCCO1 (stereo unspecified) was -9

Reported growth inhibition for NCCC(N)P(=O)(O)O (stereo unspecified) was -51

Reported growth inhibition for c1ccc(C(CNCCN2CCCCCC2)C2CCCCC2)cc1 (stereo unspecified) was 16

Reported growth inhibition for N#CC1(C#N)C(C#N)(C#N)C12CCCCCC2 was 95

Reported growth inhibition for Nc1nnc2nc(CC(=O)c3ccc([N+](=O)[O-])cc3)c(CC(=O)c3ccc([N+](=O)[O-])cc3)nn12 was 4

Reported growth inhibition for O=[N+]([O-])/C(C=Nc1ccccc1)=C/Nc1ccccc1 was 48

* * *

- test: NCI Yeast Anticancer Drug Screen. Data for the sgs1 mgt1 strain (AID 161);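 also: 0% = growth of cultures given vehicle only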
- experimental.parameters: S. cerevisiae sgs1 mgt1 strain, at 50.0 µM (retest, dose inferred, filed as 5.0)
About 79,000 compounds went through this panel and 15% of them were active in at least one assay; those are over-represented in the sample as a whole. Active and inactive are the calls of the source. No stated cut-off is given here; in the data, active means growth inhibition above about 70%; inactive means the rest.
Use one of these outcomes when replying: True for active, False for inactive

# molecule, class.name
measured = [
    ("O=C(Nc1ccccc1Cl)c1ccc(Cl)c(Cl)c1", "False"),
    ("O=C(/C(=C/c1ccc2c(c1)OCO2)c1ccccc1)c1ccc(OCCN2CCCC2)cc1", "False"),
]

*Q* Hi, sorry to bother you, what did the test record for CC1CCCCN(CCN(Cc2ccccc2)c2ccccc2)C1 (stereo unspecified) ?
*A* True

*Q* Hi, sorry to bother you, what did the test record for Cc1cc(O)c2c(c1)OC1(C)CCC3C(C)(C)CCCC34COC2C14 (stereo unspecified) ?
*A* True

*Q* Hi, sorry to bother you, what did the test record for O=C(O)/C(=C\c1ccc(Cl)cc1)c1ccc(C(F)(F)F)cc1[N+](=O)[O-] ?
*A* True

*Q* Hi, sorry to bother you, what did the test record for Cc1c(NC(=O)CCl)c(=O)oc2c(C)c3occc(=O)c3cc12 ?
*A* True

* * *

- test: NCI Yeast Anticancer Drug Screen. Data for the rad50 strain (AID 155);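 also: 0% = growth of vehicle-only cultures of the same strain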
- experimental.parameters: S. cerevisiae rad50 strain growth inhibition; at 50.0 µM; hits give high values
This is part of a sample that, as a whole, favours compounds with a hit. Of some 79,000 tested, about 15% had one in any assay.
measured.metric: growth inhibition (%)
Number only, in %; omit the unit.

# molecule, scale.unit, readout.value
data = [
    ("O=C(Nc1ccc(Cl)cc1)NS(=O)(=O)c1c(-c2ccccc2)oc2ccccc2c1=O", "%", 92.3),
    ("c1ccc(CC[n+]2csc3ccccc32)cc1", "%", 57),
    ("O=C(CN1CCCC1)Nc1nc(-c2ccc(Cl)cc2)cs1", "%", 50.5),
    ("CCOC(=O)c1ccc(-n2c(C)nc3ccc(Br)cc3c2=O)cc1", "%", 53),
    ("CCC12C=CCN3CCC4(c5cc(C(c6ccccn6)c6cc7ccccc7n6C)c(OC)cc5N(C)C4C(O)(C(=O)OC)C1OC(C)=O)C32 (stereo not drawn)", "%", 68.3),
]

Reported growth inhibition for [O-][n+]1c2ccccc2cc2c1c1ccccc1n2O was 20.1

Reported growth inhibition for O=C1c2ccccc2C(=O)c2c(OCCOCCO)cccc21 was 86.2

Reported growth inhibition for Cc1ccc(N2C(=O)C(C)SC2=S)cc1Cl (stereo not drawn) was 86.2

Reported growth inhibition for O=C(O)/C(=C\c1ccc(Cl)cc1)c1ccc(C(F)(F)F)cc1[N+](=O)[O-] was 94.1

Reported growth inhibition for CC(C)c1cc(=O)c2cc3[nH]c4ccccc4c3cc2[nH]1 was 49.9

Reported growth inhibition for CC1(c2cccs2)C(C#N)(C#N)C1(C#N)C#N was 92.8

Reported growth inhibition for CC(C)[C@H](N)C(=O)NCCNC(=O)[C@@H](N)C(C)C was -24.6

* * *

- test: NCI Yeast Anticancer Drug Screen. Data for the bub3 strain (AID 167)
- experimental.parameters: S. cerevisiae bub3 mutant strain, at 5.0 µM (retest, dose inferred, filed as 0.5), hits give high values
About 79,000 compounds went through this panel and 15% of them were active in at least one assay; those are over-represented in the sample as a whole.
# growth inhibition per entry
Number only, in %; omit the unit.

Known results for compounds:
# compound, growth inhibition (%)
records = [
    ("O=C1CCCCO1", -1),
    ("COC(=O)Nc1nc2ccc(C(C)(O)c3cccs3)cc2[nH]1 (centres undefined)", -3),
    ("c1ccc2c(c1)Cc1nc3ccccc3nc1-2", -65),
    ("COc1ccc(N=Nc2ccc3oc(=O)c(C(=O)Nc4ccccc4C)cc3c2)cc1", -5),
    ("O=C1c2scc(-c3ccccc3)c2-n2cccc21", -16),
    ("Nc1ccccc1O", 54),
]

Reported growth inhibition for Cn1c(=O)c2c(nc(CCCCCCCc3nc4c(c(=O)n(C)c(=O)n4C)n3C)n2C)n(C)c1=O was 7

Reported growth inhibition for Nc1ccc2c(S(=O)(=O)O)cc(S(=O)(=O)O)cc2c1 was 2

Reported growth inhibition for CCN(CC)CCCCCCNc1cc(Cl)cc2cccnc12 was 42

Reported growth inhibition for COc1ccc2ccnc(Cc3ccc(OCc4ccccc4)c(OC)c3)c2c1 was 28

Reported growth inhibition for O=C1/C(=C\c2ccc(Cl)cc2Cl)Sc2scc(-c3cccc([N+](=O)[O-])c3)[n+]21 was 96

Reported growth inhibition for O=C1C2Nc3ccccc3SC2C(=O)N1c1ccccc1C(F)(F)F (centres undefined) was -1

Reported growth inhibition for CC(c1ccc2ccccc2c1)c1c(F)cccc1C(=O)O (centres undefined) was -9

* * *

- test: NCI Yeast Anticancer Drug Screen. Data for the rad50 strain (AID 155);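 also: 0% = growth of vehicle-only cultures of the same strain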
- experimental.parameters: S. cerevisiae rad50 strain growth inhibition; at 5.0 µM (retest, dose inferred, filed as 0.5); hits give high values
The panel holds about 79,000 compounds, 15% with a hit somewhere; the sample as a whole holds those more often.
Use 20% as the dividing line for growth inhibition, with the line itself on the Yes side and lower values as No.

Sample answers from the record:
# smiles.str, class.name
records = [
    ("CN(C)c1ccc(/C=N/N=C(/C#N)[S][Sn]([S]/C(C#N)=N/N=C/c2ccc(N(C)C)cc2)([c]2ccccc2)[c]2ccccc2)cc1", "No"),
    ("CC(=O)/C(=C\\c1cccc(Cl)c1)C(=O)CCN(C)C", "Yes"),
]

*Q* Has Cc1ccc(/C=N/Nc2ccc([N+](=O)[O-])cc2[N+](=O)[O-])cc1 a recorded growth inhibition greater than or equal to 20%?
*A* No

*Q* Has O=C(O)CCC(c1ccccc1)(c1ccccc1)c1ccccc1 a recorded growth inhibition greater than or equal to 20%?
*A* Yes

*Q* Has CCCCn1cnc2c(SCc3ccccc3[N+](=O)[O-])nc(N)nc21 a recorded growth inhibition greater than or equal to 20%?
*A* No

* * *

- test: NCI Yeast Anticancer Drug Screen. Data for the mec2-1 strain (AID 157)
- experimental.parameters: S. cerevisiae mec2-1 strain, at 50.0 µM (retest, dose inferred, filed as 5.0), hits give high values
The panel holds about 79,000 compounds, 15% with a hit somewhere; the sample as a whole holds those more often.
# growth inhibition per entry
Number only, in %; omit the unit.

Known results for compounds:
# compound, scale.unit, growth inhibition
measured = [
    ("Nc1nnc2nc(CC(=O)c3ccc([N+](=O)[O-])cc3)c(CC(=O)c3ccc([N+](=O)[O-])cc3)nn12", "%", 15),
    ("CCOC(=O)/C(=C/c1ccccc1Br)P(=O)(OCC)OCC", "%", 60),
    ("O=C1c2ccccc2C(=O)c2sc(Nc3ccc(Cl)c(Cl)c3)nc21", "%", 98),
    ("CCCCCCCCCCCCCCCCN1CCSCC1", "%", 99),
    ("CCCCCCCCCCCCNc1ccccn1", "%", 99),
]

With those in mind, consider the next compound.
Reported growth inhibition for O=c1cccccc1[O-].O=c1cccccc1[O-].O=c1cccccc1[O-].[La+3] was 52
